# Test system: COLO 205 colon
# procedure.text: NCI-60 one-dose screen, 48 h
# condition.description: 10 µM unless noted
This is part of a sample that, as a whole, favours compounds with a hit. Of some 83,000 tested, about 20% had one in any assay. Active and inactive are the calls of the source. How the source made its calls: active means growth percent below 10; inactive means the rest.
Field 'call' accepts active, inactive

Qu. Called result for Oc1ccc(O)c(-c2ccccc2)c1
Ans. inactive

Qu. Called result for O=C(O)c1ccc2c3ccc(C(=O)O)c4c(C(=O)O)ccc(c5ccc(C(=O)O)c1c25)c43
Ans. inactive

Qu. Called result for CC(C)(C)C1=CC(=O)C(C(C)(C)C)=CC1=O
Ans. inactive

Qu. Called result for O=C(OCc1ccccc1)c1ccccc1
Ans. inactive

Qu. Called result for CCOC(=O)c1ccncc1
Ans. inactive

Qu. Called result for Nc1ccccc1SC1CC(=O)N(c2ccc(I)cc2)C1=O (configuration not stated)
Ans. inactive

Qu. Called result for CCNC1=CC(=O)c2ncccc2C1=O
Ans. active

###

# Tested on: SK-OV-3 ovarian
# procedure.text: NCI-60 one-dose screen, 48 h (100 = growth as untreated, 0 = no growth, -100 = all killed)
# condition.description: 10 µM unless noted
Compounds without any hit were thinned out: in the full panel of roughly 83,000, 20% have a hit. Activity calls are given as the source filed them. The calls were made as follows: active = growth percent below 10; inactive = the rest.
For each of the molecules below, state its growth.

Qu. Find growth (SK-OV-3 ovarian) for the entry CC(=O)/C(N=Nc1ccc(S(=O)(=O)c2ccc(N=N/C(C(C)=O)=C(/C)O)cc2)cc1)=C(\C)O
Ans. 112% (inactive)

Qu. Find growth (SK-OV-3 ovarian) for the entry Nc1nc(-c2ccccn2)cc(-c2cc(-c3ccccn3)nc(N)n2)n1
Ans. 119% (inactive)

Qu. Find growth (SK-OV-3 ovarian) for the entry CC(C)(C)OC(=O)c1ccc(NCc2cc(O)ccc2O)cc1
Ans. 44.6% (inactive)

Qu. Find growth (SK-OV-3 ovarian) for the entry CC(=O)C[n+]1ccccc1Sc1ccc(Cl)cc1
Ans. 109% (inactive)

Qu. Find growth (SK-OV-3 ovarian) for the entry Cc1ccc([N+](=O)[O-])cc1Br
Ans. 96.4% (inactive)

Qu. Find growth (SK-OV-3 ovarian) for the entry S=c1nn[nH]n1C1CCCCC1
Ans. 137% (inactive)

Qu. Find growth (SK-OV-3 ovarian) for the entry C=CCN1C(=O)c2ccccc2C1=O
Ans. 105% (inactive)

Qu. Find growth (SK-OV-3 ovarian) for the entry Clc1ccc2c(c1)N(C1CCCN(Cc3ccccc3)C1)c1ccccc1S2 (centres undefined)
Ans. 26.8% (inactive)

Qu. Find growth (SK-OV-3 ovarian) for the entry O=S(=O)(O)c1ccc2cc(O)ccc2c1
Ans. 104% (inactive)

Qu. Find growth (SK-OV-3 ovarian) for the entry CCOC(=O)c1ccncc1
Ans. 105% (inactive)

Qu. Find growth (SK-OV-3 ovarian) for the entry CC(C)(C)C1CCC(=NO)CC1 (centres undefined)
Ans. 101% (inactive)

Qu. Find growth (SK-OV-3 ovarian) for the entry COc1ccc2oc3c(ccc[n+]3C)c(=O)c2c1
Ans. 99.7% (inactive)

Qu. Find growth (SK-OV-3 ovarian) for the entry Cc1nc(Nc2ccc(Cl)cc2)c2cnn(-c3ccccc3)c2n1
Ans. 116% (inactive)

Qu. Find growth (SK-OV-3 ovarian) for the entry O=[N+]([O-])c1cccc(N=Cc2ccccc2)c1
Ans. 106% (inactive)

Qu. Find growth (SK-OV-3 ovarian) for the entry CS(=O)(=O)c1nsc(N)n1
Ans. 95.4% (inactive)

Qu. Find growth (SK-OV-3 ovarian) for the entry O=C(N=C1C(=O)C2(CCCCC2)C2(N=C(c3ccccc3)OC2=O)C12CCCCC2)c1ccccc1 (centres undefined)
Ans. 99.3% (inactive)

Qu. Find growth (SK-OV-3 ovarian) for the entry Cc1c(O)nc(N)[nH]c1=O
Ans. 112% (inactive)

Qu. Find growth (SK-OV-3 ovarian) for the entry CC1(C)CC(=O)NC1=O
Ans. 104% (inactive)

Qu. Find growth (SK-OV-3 ovarian) for the entry CN1C2C=CC(=O)C1C1C(=O)N(c3ccccc3)C(=O)C12 (centres undefined)
Ans. 105% (inactive)

Qu. Find growth (SK-OV-3 ovarian) for the entry CSc1nc(N)c(N)c(N)n1
Ans. 81.3% (inactive)

Qu. Find growth (SK-OV-3 ovarian) for the entry Cc1c(Cl)cc(Cl)c(N)c1Cl
Ans. 101% (inactive)

Qu. Find growth (SK-OV-3 ovarian) for the entry OCc1ccccc1F
Ans. 87% (inactive)

Qu. Find growth (SK-OV-3 ovarian) for the entry Cc1cc(Cl)nc(Nc2ccccc2)n1
Ans. 102% (inactive)

Qu. Find growth (SK-OV-3 ovarian) for the entry c1ccc2c[n+](Cc3ccc4ccccc4n3)ccc2c1
Ans. 88.5% (inactive)

Qu. Find growth (SK-OV-3 ovarian) for the entry CC(=O)Nc1cscc1NC(C)=O
Ans. 103% (inactive)

Qu. Find growth (SK-OV-3 ovarian) for the entry Cc1cc(=NO)cc(C)n1O
Ans. 104% (inactive)

Qu. Find growth (SK-OV-3 ovarian) for the entry O=C1c2cccnc2-c2ncccc21
Ans. 107% [100 µM] (inactive)

Qu. Find growth (SK-OV-3 ovarian) for the entry Nc1ccc2ccc(NS(=O)(=O)N3CCCCC3)cc2c1
Ans. 31.8% (inactive)

Qu. Find growth (SK-OV-3 ovarian) for the entry COc1ccc2nccc(Cl)c2c1
Ans. 111% (inactive)

Just for reference, PubChem BioAssay (NCI) is where these values come from.
